system: human embryonic kidney (HEK-293) cells; assay: Cytotoxicity assay: human HEK-293 cell line (resazurin); assay type: cell-based; conditions: Homo sapiens, HEK293; cytotoxicity, 72 h; read-out: IC50 [µM], HEK-293
METRIC: IC50

COMPOUND: Nc1nnc(Sc2ncnc3sccc23)s1
IC50: > 4 µM

COMPOUND: Cn1ccnc1Sc1ncnc2sccc12
IC50: > 40 µM

COMPOUND: Cn1cnnc1Sc1ncnc2sccc12
IC50: > 40 µM

COMPOUND: c1csc(Sc2ncnc3sccc23)n1
IC50: > 10 µM

Enquiry: Input c1coc(Sc2ncnc3sccc23)n1 , output reported IC50.
Return: > 10 µM

Enquiry: Return IC50 (reported value) for this compound: c1coc(-c2nc(Sc3ncnc4sccc34)n[nH]2)c1
Return: > 40 µM

Enquiry: Return value of IC50 for input Cc1csc(Sc2ncnc3sccc23)n1 [Amb180780, reference compound] , no commentary.
Return: > 40 µM

Entry source: paper PMC5430599
